All figures here come from paper PMC9402538.

- Test target: T1, APC (303–739) (UniProt P25054 303-739)
- T1 construct: adenomatous polyposis coli (APC), residues 303–739; The methods name this construct for FP and SPR; the ITC methods say only 'APC protein'; Plasmid was a gift (Dr. Geng Wu); pET28a; also called APC WT; adenomatous polyposis coli; source: E. coli BL21 (DE3), purified (Ni-NTA)
- T1 sequence (looked up): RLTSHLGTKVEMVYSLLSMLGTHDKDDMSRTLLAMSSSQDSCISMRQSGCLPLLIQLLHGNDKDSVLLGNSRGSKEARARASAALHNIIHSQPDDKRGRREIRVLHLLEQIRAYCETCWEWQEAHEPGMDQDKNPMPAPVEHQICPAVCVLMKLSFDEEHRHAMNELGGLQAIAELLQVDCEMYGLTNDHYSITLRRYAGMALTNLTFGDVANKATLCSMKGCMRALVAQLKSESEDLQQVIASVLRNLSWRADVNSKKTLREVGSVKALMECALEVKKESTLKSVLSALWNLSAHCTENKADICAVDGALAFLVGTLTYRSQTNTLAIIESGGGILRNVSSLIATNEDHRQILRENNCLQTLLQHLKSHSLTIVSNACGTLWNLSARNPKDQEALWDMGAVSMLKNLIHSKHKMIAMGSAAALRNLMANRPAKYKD
- Experiment notes: ITC; MicroCal ITC200, 30 °C; 50 mM HEPES pH 7.5, 300 mM NaCl, 1 mM EDTA; APC in the cell at 10–20 μM, peptide injected at 100–200 μM; single-site model
- Conditions: both partners purified
The star is where a group is joined. FITC = O=C1OC2(c3ccc(O)cc3Oc3cc(O)ccc32)c2ccc(NC(=S)*)cc21; Cbz = O=C(OCc1ccccc1)*
Measured metric: pKd
pKd here: minus log base 10 of the concentration, concentration in moles per litre.

Binder	pKd
Cbz-AGESLYEK(FITC)-NH2 (tracer 6 with a shortened linker; source: synthetic peptide, bought: Changzhou Kanglong Biotech Ltd) [tracer 7 (Z–AGESLYEK[FITC]–NH2)]	7.11

Looking up Ac-GGGGEQLAINELISDGK(FITC)-NH2 (stretch of Asef (Rho guanine nucleotide exchange factor 4); lysine that carries FITC; source: synthetic peptide, bought: Changzhou Kanglong Biotech Ltd) [tracer 1 (Ac–GGGGEQLAINELISDGK[FITC]–NH2)] , I see its pKd listed as 6.24
